Recorded values, source patent US10662204B2.

target-or-system: GDP-loaded KRAS (1-169) G12C, C51S, C80L, C118S (Homo sapiens, UniProt P01116, C118S/C51S/C80L/G12C)
Construct: GDP-loaded KRAS (1-169) G12C, C51S, C80L, C118S
test-details: Mass Spectrometry Reactivity Assay (MSRA): covalent adduct of compound and KRAS G12C, Percent Modification
Assay type: binding
conditions: 10 μM compound, 0.50 hr
measurement-label: MSRA (% modification) 10 μM 0.50 hr (%)

C=CC(=O)N1CCN(c2nc(N3CC[C@H](N(C)C)C3)nc3c(Oc4c(C)ccc5[nH]ncc45)cccc23)CC1 [Example 08E]    25

[a] C=CC(=O)N1CCN(c2ncnc3c(Oc4c(C)ccc5[nH]nc(C)c45)nccc23)CC1 [Example 17A]
[b] C=CC(=O)N1CCN(c2nc(NCc3nc(C)c[nH]3)nc3c(Oc4c(C)ccc5[nH]ncc45)cccc23)CC1 [Example 01F]
[c] C=CC(=O)N1CCN(c2nc(N3CC(N(C)C)C3)nc3c(Oc4c(Cl)c(C)cc5[nH]ncc45)cccc23)CC1 [Example 14E]
Exercise: Rank entries according to their MSRA (% modification) 10 μM 0.50 hr, from the largest number down. Please express your ranking as an ordered list of the labels.
Key: c, b, a
(c: 65%, b: 35%, a: 9%)

----------
target-or-system: GDP-loaded KRAS (1-169) G12C, C51S, C80L, C118S (Homo sapiens, UniProt P01116, C118S/C51S/C80L/G12C)
Construct: GDP-loaded KRAS (1-169) G12C, C51S, C80L, C118S
test-details: Mass Spectrometry Reactivity Assay (MSRA): covalent adduct of compound and KRAS G12C, Percent Modification
Assay type: binding
conditions: 10 μM compound, 0.25 hr
measurement-label: MSRA (% modification) 10 μM 0.25 hr (%)

C=CC(=O)N1CCN(c2nc(OC[C@@H]3CCCN3C)nc3c(Oc4c(Cl)c(F)cc5[nH]ncc45)cccc23)CC1 [Example 16E]    11
C=CC(=O)N1CCN(c2nc(OC[C@@H]3C[C@@H](OC)CN3C)nc3c(Oc4c(Cl)c(F)cc5[nH]ncc45)nccc23)CC1 [Example 13H]    83
C=CC(=O)N1CCN(c2ncnc3c(Oc4c(Cl)c(F)cc5[nH]ncc45)nc(Cl)cc23)CC1 [Example 20A]    73
C=CC(=O)N1CCN(c2nc(OC[C@H]3CCCN3C)nc3c(Oc4c(C)ccc5[nH]ncc45)nccc23)CC1 [Example 09B]    43
C=CC(=O)N1CCN(c2nc(OC[C@@H]3C[C@H](F)CN3C)nc3c(Oc4c(Cl)c(F)cc5[nH]ncc45)nc(Cl)cc23)CC1 [Example 21G]    80

[a] C=CC(=O)N1CCN(c2nc(O[C@@H]3CCC[C@H]3N(C)C)nc3c(Oc4c(C)ccc5[nH]ncc45)nccc23)CC1 [Example 11B]
[b] C=CC(=O)N1CCN(c2nc(OC[C@@H]3CCCN3C)nc3c(Oc4c(Cl)c(F)cc5[nH]ncc45)nc(Cl)cc23)C[C@H]1C [Example 04G]
[c] C=CC(=O)N1CCN(c2nc(OC[C@H]3C[C@@H](F)CN3C)nc3c(Oc4c(Cl)c(F)cc5[nH]ncc45)nc(Cl)cc23)CC1 [Example 22G]
[d] C=CC(=O)N1CCN(c2nc(OC[C@@H]3C[C@@H](F)CN3C)nc3c(Oc4c(Cl)c(F)cc5[nH]ncc45)nc(Cl)cc23)CC1 [Example 16G]
[e] C=CC(=O)N1CCN(c2ncnc3c(Oc4c(Cl)c(F)cc5[nH]ncc45)nc(N)cc23)CC1 [Example 41A]
Exercise: # ascending order, key=MSRA (% modification) 10 μM 0.25 hr Please express your ranking as an ordered list of the labels.
Key: d, a, e, b, c

[a] C=CC(=O)N1CCN(c2nc(OC[C@H]3CCCN3C)nc3c(Oc4c(C)ccc5[nH]ncc45)cccc23)CC1 [Example 06E]
[b] C=CC(=O)N1CCN(c2ncnc3c(Oc4c(Cl)c(C)cc5[nH]ncc45)nc(C#N)cc23)CC1 [Example 19A]
Exercise: Of the two listed items, which has the higher MSRA (% modification) 10 μM 0.25 hr? First: a Second: b Identify your selection by its label.
Key: a
(a: 70%, b: 21%)

[P] C=CC(=O)N1C[C@H](C)N(c2ncnc3c(Oc4c(Cl)c(F)cc5[nH]ncc45)nc(Cl)cc23)C[C@H]1C [Example 35A]
[Q] C=CC(=O)N1CCN(c2ncnc3c(Oc4c(Cl)c(C)cc5[nH]ncc45)nccc23)CC1 [Example 11A]
Exercise: Consider entries P and Q . Which has the numerically lower MSRA (% modification) 10 μM 0.25 hr? Identify your selection by its label.
Key: Q

[P] C=CC(=O)N1CCN(c2nc(OC[C@@H]3CCCN3C)nc3c(Oc4c(C)ccc5[nH]ncc45)nc(Cl)cc23)CC1 [Example 03G]
[Q] C=CC(=O)N1CCN(c2nc(NCc3ncc[nH]3)nc3c(Oc4c(C)ccc5[nH]ncc45)cccc23)CC1 [Example 20F]
Exercise: Consider entries P and Q . Which has the numerically lower MSRA (% modification) 10 μM 0.25 hr? Identify your selection by its label.
Key: Q

[P] C=CC(=O)N1CCN(c2nc(OC[C@H]3CN(C)C[C@@H]3OC)nc3c(Oc4c(Cl)c(F)cc5[nH]ncc45)nc(Cl)cc23)CC1 [Example 18G]
[Q] C=CC(=O)N1CCN(c2nc(OC[C@H]3CCC(=O)N3)nc3c(Oc4c(C)ccc5[nH]ncc45)cccc23)CC1 [Example 10F]
Exercise: Consider entries P and Q . Which has the numerically lower MSRA (% modification) 10 μM 0.25 hr? Identify your selection by its label.
Key: Q
(Q: 53%, P: 81%)

[1] C=CC(=O)N1CCN(c2nc(OC[C@H]3CCCN3C)nc3c(Oc4c(Cl)c(F)cc5[nH]ncc45)nccc23)CC1 [Example 17E]
[2] C=CC(=O)N1CCN(c2ncnc3c(Oc4c(Cl)c(F)cc5[nH]ncc45)nc(Cl)cc23)[C@@H](CO)C1 [Example 38A]
Exercise: Of the two listed items, which has the higher MSRA (% modification) 10 μM 0.25 hr? First: 1 Second: 2 Identify your selection by its label.
Key: 1
(1: 80%, 2: 56%)
